Run Description: Cytotoxicity against mouse 26-L5 cells after 24 hrs by crystal violet staining assay
Assay type: cell-based
Readout Name: pIC50
Scale: pIC50 equals -log10([C]), with [C] in mol/L.

Incoming: Could you tell me which pIC50 is on file for C[C@H](C/C=C/[C@H](C)[C@@H](O)CC1CCC(C)(C2CCC(C)([C@@H](C)O)O2)O1)C[C@@H](C)/C(O)=C/C(=O)[C@@H](C)C[C@@H](C)C[C@H](C)C[C@H](C)C(=O)O (stereo partly specified) ?
Outgoing: 5.35

---

Listing: IC50 of selected compounds
Run Description: Antiinvasive activity against mouse 26-L5 cells after 6 to 8 hrs by matrigel assay
Type: functional, cell-based
The answer is to be given in µM; state only the numeric part.

[
  {
    "Compound": "C[C@H](C/C=C/[C@H](C)[C@@H](O)CC1CCC(C)(C2CCC(C)([C@@H](C)O)O2)O1)C[C@@H](C)/C(O)=C/C(=O)[C@@H](C)C[C@@H](C)C[C@H](C)C[C@H](C)C(=O)O (some centres not stated)",
    "Readout Name": "IC50",
    "Readout Number": 0.3
  }
]

Incoming: Could you tell me which IC50 is on file for CC[C@@H](C[C@@H](C)C[C@H](C)C[C@H](C)C(=O)O)C(=O)/C=C(\O)[C@H](C)C[C@H](C)C/C=C/[C@H](C)[C@@H](O)CC1CCC(C)(C2CCC(C)([C@@H](C)O)O2)O1 (some centres not stated) ?
Outgoing: 0.0055

---

Listing: selectivity ratio of selected compounds
Run Description: Selectivity index, ratio of IC50 for cytotoxicity against mouse 26-L5 cells to IC50 for antiinvasive activity against mouse 26-L5 cells
Format: toxicity, cell-based
Stated Conditions: read-out: Ratio IC50
Could you keep your reply to the number by itself?

[
  {
    "Compound": "C[C@H](C/C=C/[C@H](C)[C@@H](O)CC1CCC(C)(C2CCC(C)([C@@H](C)O)O2)O1)C[C@@H](C)/C(O)=C/C(=O)[C@@H](C)C[C@@H](C)C[C@H](C)C[C@H](C)C(=O)O (some centres not stated)",
    "selectivity ratio": 15
  }
]

Let's switch to this compound now.
Incoming: Could you tell me which selectivity ratio is on file for CC[C@@H](C[C@@H](C)C[C@H](C)C[C@H](C)C(=O)O)C(=O)/C=C(\O)[C@H](C)C[C@H](C)C/C=C/[C@H](C)[C@@H](O)CC1CCC(C)(C2CCC(C)([C@@H](C)O)O2)O1 (some centres not stated) ?
Outgoing: 73
